- tested-on: B2 bradykinin receptor (Rattus norvegicus)
- Sequence (P25023 whole entry): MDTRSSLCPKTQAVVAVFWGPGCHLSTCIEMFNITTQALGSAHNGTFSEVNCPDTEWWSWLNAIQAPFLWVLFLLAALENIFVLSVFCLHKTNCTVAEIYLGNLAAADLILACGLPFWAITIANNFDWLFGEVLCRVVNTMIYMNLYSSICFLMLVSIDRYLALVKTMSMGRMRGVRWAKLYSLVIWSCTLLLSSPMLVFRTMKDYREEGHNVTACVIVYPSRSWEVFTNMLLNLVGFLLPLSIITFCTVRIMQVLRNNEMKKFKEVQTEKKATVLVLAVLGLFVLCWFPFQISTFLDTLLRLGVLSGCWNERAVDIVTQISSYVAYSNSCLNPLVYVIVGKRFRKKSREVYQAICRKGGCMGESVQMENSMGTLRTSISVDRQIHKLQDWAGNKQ
experimental-endpoint: pKi
Keep in mind that pKi stands for -log10 of concentration in molar terms.

## Input Find the recorded pKi belonging to CSCC[C@H](NC(=O)[C@H](Cc1ccccc1)NC(=O)[C@@H](C)NC(=O)[C@@H](N)Cc1ccc(O)cc1)C(=O)N[C@H](CCCNC(=N)N)C(=O)N[C@@H](CCCNC(=N)N)C(=O)N1CCC[C@H]1C(=O)N1C[C@H](O)C[C@H]1C(=O)NCC(=O)N[C@@H](Cc1cccs1)C(=O)N[C@@H](CO)C(=O)N1Cc2ccccc2C[C@@H]1C(=O)N1[C@H](C(=O)N[C@@H](CCCNC(=N)N)C(=O)O)C[C@@H]2CCCC[C@@H]21 and report it.
## Output 5.28

###

- tested-on: Delta-type opioid receptor (Homo sapiens)
- Sequence (P41143 whole entry): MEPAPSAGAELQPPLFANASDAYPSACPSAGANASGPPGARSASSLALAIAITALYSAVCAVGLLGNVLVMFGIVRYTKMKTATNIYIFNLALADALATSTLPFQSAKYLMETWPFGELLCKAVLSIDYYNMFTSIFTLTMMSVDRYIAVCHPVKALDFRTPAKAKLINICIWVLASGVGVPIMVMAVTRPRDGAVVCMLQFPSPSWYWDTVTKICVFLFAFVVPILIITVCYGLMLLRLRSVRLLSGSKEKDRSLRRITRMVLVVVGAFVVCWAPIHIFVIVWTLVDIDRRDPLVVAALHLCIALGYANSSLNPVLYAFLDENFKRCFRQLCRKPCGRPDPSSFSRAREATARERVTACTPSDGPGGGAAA
- experimental-protocol: Displacement of [3H]DPDPE from human delta opiod receptor
Square brackets hold non-standard residues; d marks the D form. Side chains are listed from the residue outwards. Peptide text beside a SMILES is read from it. Oic = O=C(O)[C@@H]1C[C@@H]2CCCC[C@@H]2N1; Hyp = O=C(O)[C@@H]1C[C@@H](O)CN1; dTic = O=C(O)[C@H]1Cc2ccccc2CN1; 2Thi = N[C@@H](Cc1cccs1)C(=O)O; Dap = NC[C@H](N)C(=O)O
experimental-endpoint: pIC50
Keep in mind that pIC50 stands for -log10 of concentration in molar terms.

## Input Find the recorded pIC50 belonging to C[C@@H](NC(=O)[C@@H](N)Cc1ccc(O)cc1)C(=O)NCC(=O)N[C@@H](Cc1ccccc1)C(=O)NC[C@H](NC(=O)[C@@H]1CCCN1C(=O)[C@H](CCCNC(=N)N)NC(=O)[C@H](N)CCCNC(=N)N)C(=O)NCC(=O)N[C@@H](Cc1cccs1)C(=O)N[C@@H](CO)C(=O)N1Cc2ccccc2C[C@@H]1C(=O)N1[C@H](C(=O)N[C@@H](CCCNC(=N)N)C(=O)O)C[C@@H]2CCCC[C@@H]21 and report it.
## Output 8.17

## Input Note, next up: C[C@@H](NC(=O)[C@@H](N)Cc1ccc(O)cc1)C(=O)NCC(=O)N[C@@H](Cc1ccccc1)C(=O)NCCC(=O)N[C@H](CCCNC(=N)N)C(=O)N[C@@H](CCCNC(=N)N)C(=O)N1CCC[C@H]1C(=O)N1C[C@H](O)C[C@H]1C(=O)NCC(=O)N[C@@H](Cc1cccs1)C(=O)N[C@@H](CO)C(=O)N1Cc2ccccc2C[C@@H]1C(=O)N1[C@H](C(=O)N[C@@H](CCCNC(=N)N)C(=O)O)C[C@@H]2CCCC[C@@H]21
## Output 7.04

## Input Note, next up: C[C@@H](NC(=O)[C@@H](N)Cc1ccc(O)cc1)C(=O)NCC(=O)N[C@@H](Cc1ccccc1)C(=O)NC[C@H](NC(=O)[C@H](Cc1cccs1)NC(=O)CNC(=O)[C@@H]1C[C@@H](O)CN1C(=O)[C@@H]1CCCN1C(=O)[C@H](CCCNC(=N)N)NC(=O)[C@H](N)CCCNC(=N)N)C(=O)N1Cc2ccccc2C[C@@H]1C(=O)N1[C@H](C(=O)N[C@@H](CCCNC(=N)N)C(=O)O)C[C@@H]2CCCC[C@@H]21 (H-[dR]RP[Hyp]G[2Thi][Dap]([Phe-Gly-dA-Tyr])[dTic][Oic]R-OH)
## Output 9.22
